System: 5HT1A receptors (Rattus norvegicus, UniProt P19327)
Construct: synaptosomal membranes isolated from cerebral cortex; from tissue; host or cells: rat cerebral cortex, crude synaptosomal membranes
Sequence (P19327 1-422): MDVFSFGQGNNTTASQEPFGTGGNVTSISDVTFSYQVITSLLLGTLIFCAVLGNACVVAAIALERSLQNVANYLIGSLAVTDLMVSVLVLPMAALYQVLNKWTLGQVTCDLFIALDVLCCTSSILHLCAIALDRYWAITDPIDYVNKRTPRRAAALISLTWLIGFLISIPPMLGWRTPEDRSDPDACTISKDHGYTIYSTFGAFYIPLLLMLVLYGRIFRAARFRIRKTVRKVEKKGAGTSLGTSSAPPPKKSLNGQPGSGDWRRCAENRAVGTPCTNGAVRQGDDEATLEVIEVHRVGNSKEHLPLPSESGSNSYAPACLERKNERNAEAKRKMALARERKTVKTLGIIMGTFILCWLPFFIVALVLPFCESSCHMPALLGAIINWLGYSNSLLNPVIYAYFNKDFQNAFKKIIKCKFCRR
Measurement Description: In vitro binding to 5HT1A receptors (inhibition of 3H-8-OH-DPAT binding, rat cerebral cortex synaptosomal membranes)
Set-up: species or system rat (male Sprague-Dawley)
Settings: inhibition of 3H-8-OH-DPAT binding, rat cerebral cortex; read-out: Radioligand binding data (IC50, nM) 5-HT1a
Counter-ions that a name gives are not always drawn.
Experimental Endpoint: IC50 (nM)

{"columns": ["Molecule", "System", "Experimental Value"],
 "data": [
  ["CCCN(CCC)C1CCc2cccc(-c3cc(-c4ccccc4)no3)c2C1 (stereo not drawn) [Example 6, hydrobromide]", "5HT1A receptors (Rattus norvegicus, UniProt P19327)", 72],
  ["CCCN(CCC)C1CCc2cccc(-c3oncc3C)c2C1.O=C(O)/C=C\\C(=O)O (stereo not drawn) [Example 3, maleate]", "5HT1A receptors (Rattus norvegicus, UniProt P19327)", 1.9],
  ["CCCN(CCC)C1CCc2cccc(-c3ccno3)c2C1.O=C(O)/C=C\\C(=O)O (stereo not drawn) [Example 1, maleate]", "5HT1A receptors (Rattus norvegicus, UniProt P19327)", 0.44]
]}
